experiment: recombinant barcode read abundance after kanamycin selection (control-corrected) (log10(CPM+1)); higher = more efficient recombination; sequences stand for … in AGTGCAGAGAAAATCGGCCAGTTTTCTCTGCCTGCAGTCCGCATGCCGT…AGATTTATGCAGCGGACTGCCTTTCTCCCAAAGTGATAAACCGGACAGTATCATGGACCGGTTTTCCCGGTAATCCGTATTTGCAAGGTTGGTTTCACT; site = the 11-nt target;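 further: IS621 recombinase and bridge RNA in Escherichia coli cells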
Value Type: recombinant barcode read abundance (log10)

Record Sequence: TGTGACTCTTGGGTTCTAACCTGTTGCCT (site TGGGACTCTAG)
Measured Value: 0.0547

Record Sequence: GACAGGCCTTGGGTTCTAACCTGTTGCCT (site CACGGGCCTAG)
Measured Value: 0.041

Record Sequence: ATCTTAACTTGGGTTCTAACCTGTTGCCT (site ATCTTAGCTAG)
Measured Value: 0.337

Record Sequence: GAGGAGTCTTGGGTTCTAACCTGTTGCCG (site AGAACACCTAA)
Measured Value: 0.0129

Record Sequence: ACTACTCCTTGGGTTCTAACCTGTTGCAG (site ACTACTCCTCT)
Measured Value: 0.461

Record Sequence: GAGTGAGCTTGGGTTCTAACCTGTTGCGT (site GAGCGATCTAC)
Measured Value: 0.689

Record Sequence: TGCATAGCTTGGGTTCTAACCTGTTGCAG (site TGCATAGCTCT)
Measured Value: 1.49

Record Sequence: CACAGCACTTGGGTTCTAACCTGTTGCCT (site CACAGCACTAG)
Measured Value: 1.44

Record Sequence: TTCGTAGCTTGGGTTCTAACCTGTTGCGT (site TTCGTAGCTAG)
Measured Value: 0.285

Record Sequence: GCGAGCTCTTGGGTTCTAACCTGTTGCCT (site GCGCGTTCTAG)
Measured Value: 0.291
